- Assay Procedure: in vitro
- Conditions: PAMPA, pH 7.4
- Description: Permeability of the compound in phosphate buffer at pH 7.4 by PAMPA
Each entry falls in a class defined on Papp; the bands are low group = under 8 ×10⁻⁶ cm/s, middle group = from 8 ×10⁻⁶ cm/s up to 10 ×10⁻⁶ cm/s, high group = 10 ×10⁻⁶ cm/s and over

Which Papp category applies to COc1cc(O)c2c(=O)cc(C(=O)NCCCCCCCCCCNc3c4c(nc5cc(Cl)ccc35)CCCC4)oc2c1.Cl here? middle group

COc1cc(OC)c2c(=O)cc(C(=O)NCCCCCCCCCCNc3c4c(nc5ccccc35)CCCC4)oc2c1.Cl ? high group

COc1ccc2oc(C(=O)NCCCCCCCCCCNc3c4c(nc5cc(Cl)ccc35)CCCC4)cc(=O)c2c1.Cl ? low group

Cl.O=C(NCCCCCCCCCCNc1c2c(nc3ccccc13)CCCC2)c1cc(=O)c2ccccc2o1 ? middle group

COc1cc(O)c2c(=O)cc(C(=O)NCCCCCCCCCCNc3c4c(nc5ccccc35)CCCC4)oc2c1.Cl ? high group

COc1cc2oc(C(=O)NCCCCCCCCCCNc3c4c(nc5ccccc35)CCCC4)cc(=O)c2cc1OC.Cl ? high group

Cl.O=C(NCCCCCCCCCCNc1c2c(nc3ccccc13)CCCC2)c1cc(=O)c2cc(O)c(O)cc2o1 ? low group

COc1ccc2oc(C(=O)NCCCCCCCCCCNc3c4c(nc5ccccc35)CCCC4)cc(=O)c2c1.Cl ? high group

Cl.O=C(NCCCCCCCCCCNc1c2c(nc3ccccc13)CCCC2)c1cc(=O)c2cc(O)ccc2o1 ? high group

COc1cc(OC)c2c(=O)cc(C(=O)NCCCCCCCCCCNc3c4c(nc5cc(Cl)ccc35)CCCC4)oc2c1.Cl ? high group

Cl.O=C(NCCCCCCCCCCNc1c2c(nc3cc(Cl)ccc13)CCCC2)c1cc(=O)c2cc(O)c(O)cc2o1 ? low group
